test: qHTS assay to identify small molecule antagonists of the constitutive androstane receptor (CAR) signaling pathway - cell viability counter screen (AID 1224837); details: HepG2-CYP2B6-hCAR viability, CellTiter-Fluor, 23 h, co-treated with 50 nM CITCO; series mostly up to 92.4 µM; also: nearly all actives have a fitted effect of over 45% in size
Inconclusive results are not listed. Calls of active or inactive are those of the source. Calls follow the shape of the dose curve; as a rule, active = well fitted cell-killing curve with a large enough effect in the repeat runs; inconclusive = weak or mixed curves, or effect the other way; inactive = flat fitted curve, though single readings scatter.
Hi! Could you answer with just one of these? Yes (active), No (inactive)

Below are worked cases with known answers.
O=C(O)C(S)C(S)C(=O)O (configuration not stated) | No
CCOC(=O)C(F)(F)F | No
CCCCCCOC(=O)NC(=N)c1ccc(NCc2nc3cc(C(=O)N(CCC(=O)OCC)c4ccccn4)ccc3n2C)cc1 | No
O=C(Nc1ccccc1)c1ccccc1O | No
CN1CCC(=C2c3ccccc3Sc3ccccc32)CC1 | No
CN(C)CCN(Cc1ccsc1)c1ccccn1 | No

## Task Please share the test call associated with C[C@H]1C[C@H]2[C@@H]3CCC4=CC(=O)C=C[C@]4(C)[C@@]3(Cl)[C@@H](O)C[C@]2(C)[C@@]1(O)C(=O)CO .
## Result No

## Task Please let me know the test result on file for CCC(Cl)CCC(Cl)C(Cl)CC(Cl)C(Cl)C(Cl)CCl (configuration not stated) .
## Result No

## Task In this assay, the call recorded for Cc1ccccc1S(=O)(=O)O was what?
## Result No

## Task Please state the recorded outcome for this compound: CCCCCCc1ccc(-c2ccc(C#N)cc2)cc1
## Result No

## Task Hey, what did the test say about OCc1cc(C(O)CNCCCCCCOCCCCc2ccccc2)ccc1O (configuration not stated) ?
## Result Yes

## Task Which result was noted for this compound in the test: CCN(CC)c1ccc2c(-c3ccccc3C(=O)O)c3ccc(=[N+](CC)CC)cc-3oc2c1
## Result Yes

====

experiment: A CellTox Green Cytotoxicity Assay to monitor cytotoxicity in HEK293 cells - 8 hour (AID 1224884); conditions: CellTox Green fluorescence; series mostly up to 76.8 µM; also: nearly all actives have a fitted effect of over 35% in size; also: potency is read from the fitted curve at half-maximal effect
Inconclusive results are not listed. The source made the active and inactive calls. Calls follow the shape of the dose curve; as a rule, active = well fitted activation curve with a large enough effect in the repeat runs; inconclusive = weak or mixed curves; inactive = flat fitted curve, though single readings scatter.
measured attribute: Potency

Would you please look over these solved cases?
CN(C)CCN(Cc1ccc(Cl)cc1)c1ccccn1 | inactive
COS(=O)(=O)C(F)(F)F | inactive
CCCCCCOC(=O)NC(=N)c1ccc(NCc2nc3cc(C(=O)N(CCC(=O)OCC)c4ccccn4)ccc3n2C)cc1 | inactive
CC(COCCO)OCCO (stereo not drawn) | inactive
CO[C@@H]1[C@H](OC(=O)/C=C/C=C/C=C/C=C/C(=O)O)CC[C@]2(CO2)[C@H]1[C@@]1(C)O[C@@H]1CC=C(C)C | inactive
CCN(CC)c1ccc2c(-c3ccccc3C(=O)O)c3ccc(=[N+](CC)CC)cc-3oc2c1 | 24.5 µM (active)
Cc1cc(C(=O)O)ccc1[N+](=O)[O-] | inactive
CN1CCN(C(c2ccccc2)c2ccccc2)CC1 | inactive
CCO[C@H](Cc1ccc(OCCc2ccc(OS(C)(=O)=O)cc2)cc1)C(=O)O | inactive
CC(=O)OC[C@H]1O[C@@H](n2ncc(=O)[nH]c2=O)[C@H](OC(C)=O)[C@@H]1OC(C)=O | inactive

Your task in this section: give Potency for each listed record.
1. COc1cc2c(cc1OC)C(C(C(=O)N(CCc1ccc(OC)c(OC)c1OC)CCc1ccc(OC)c(OC)c1OC)c1ccccc1)=NCC2 (stereo not drawn)
2. Cc1ccc(C(=O)Oc2ccc(C(O)CNC(C)(C)C)cc2OC(=O)c2ccc(C)cc2)cc1 (stereo not drawn)
3. COCC(C)OC(C)=O (stereo not drawn)
4. CCOc1ccc(O)cc1
5. Cn1c(=O)cc(Oc2ccc(F)cc2F)c2cnc(NCC(C)(C)O)nc21

## Result
1: inactive; 2: 23.9 µM (active); 3: inactive; 4: inactive; 5: inactive

Report Potency for every entry below.
1. C[N+]1(CC2COC(c3ccccc3)(C3CCCCC3)O2)CCCCC1 (stereo not drawn)
2. N=c1ccn2c(n1)O[C@H]1[C@H](O)[C@@H](CO)O[C@H]12
3. NC(=O)C(c1ccccc1)(c1ccccc1)[C@@H]1CCN(CCc2ccc3c(c2)CCO3)C1
4. CCCCC
5. CC(C)OC(=O)C(C)N(C(=O)c1ccccc1)c1ccc(F)c(Cl)c1 (stereo not drawn)
6. CCCCCC[C@@H](O)C/C=C\CCCCCCCC(=O)OC
7. C[Si](C)(CCCN)O[Si](C)(C)CCCN
8. C=CC1CC2C=CC1C2 (stereo not drawn)

## Result
1: inactive; 2: inactive; 3: 21.3 µM (active); 4: inactive; 5: inactive; 6: inactive; 7: inactive; 8: inactive
